Tested target: Pim-2 stably transfected into the U2OS human osteogenic sarcoma line (Homo sapiens, UniProt Q9P1W9)
Construct: expressed in transfected cells; host or cells: U2OS human osteogenic sarcoma line
Sequence (Q9P1W9 whole entry): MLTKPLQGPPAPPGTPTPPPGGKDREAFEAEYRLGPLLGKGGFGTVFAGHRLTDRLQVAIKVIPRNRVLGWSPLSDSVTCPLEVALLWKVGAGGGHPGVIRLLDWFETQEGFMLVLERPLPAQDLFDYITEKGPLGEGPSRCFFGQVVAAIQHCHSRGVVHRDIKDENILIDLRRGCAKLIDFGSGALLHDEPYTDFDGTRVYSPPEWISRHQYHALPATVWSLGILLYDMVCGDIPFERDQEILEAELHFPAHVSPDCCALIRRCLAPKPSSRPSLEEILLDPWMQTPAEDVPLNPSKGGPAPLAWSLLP
Method notes: Pim cell assay, phospho-BAD normalized against total BAD, U2OS stably transfected with Pim-2; further: high dose 31.6 µM
Format: cell-based
Measurement parameters: read-out: Pim2_Cell_IC50
Endpoint: IC50

Here's what some known entries look like.
q: Bench note: what IC50 did `Fc1cccc(F)c1-c1ccc2[nH]cc(-c3nccc(OC4CCNCC4)n3)c2c1` show?
a: > 31.6 µM

q: Another compound to check: `CN1CCN(c2ccc3[nH]nc(-c4cncc(N5CCC(N)CC5)n4)c3c2)C1=O`
a: > 31.6 µM

q: How about this compound: `CC(C)Oc1cncc(-c2ccc3[nH]cc(-c4cncc(N[C@@H]5CCCNC5)n4)c3c2)n1`
a: 24.7 µM

q: Try `COc1cncc(-c2ccc3[nH]nc(-c4ccnc(N5CCC(N)CC5)n4)c3c2)c1` next.
a: 2.24 µM

q: And what about the compound `COC(=O)c1ccc2[nH]cc(-c3cncc(N4CCC(N)CC4)n3)c2c1` ?
a: 5.82 µM

q: Now the same for `Fc1cccc(F)c1-c1ccc2[nH]cc(-c3nccc(O[C@@H]4CCCNC4)n3)c2c1`
a: 30.3 µM

q: Try the compound `CC(C)Oc1cncc(-c2ccc3[nH]cc(-c4cncc(N5CCOCC5)n4)c3c2)n1`
a: > 31.6 µM

q: One more compound: `CC(C)Oc1cncc(-c2ccc3[nH]cc(-c4ccc5cn[nH]c5c4)c3c2)n1`
a: > 31.6 µM

Kindly give each listed record's IC50.
1. NC1CCN(c2cncc(-c3c[nH]c4ccc([N+](=O)[O-])cc34)n2)CC1
2. CC(C)Oc1cncc(-c2ccc3[nH]cc(-c4csc(-n5ccnc5)n4)c3c2)n1

a:
1. > 15.8 µM
2. > 31.6 µM

---

Tested target: full length recombinant Pim-1 protein (Homo sapiens)
Construct: by full length recombinant Pim-1, Pim-2, or Pim-3 protein; hexahistidine tag followed by a thrombin cleavage site (N); made in house; host or cells: Sf9 (baculovirus) or E. coli (pET28)
Method notes: Pim-1 enzyme assay (HTRF, phosphorylation of biotinylated-BAD (S112) peptide)
Format: biochemical
Measurement parameters: enzyme assay, Pim-1; read-out: Pim_1_IC50
Description: These cDNAs were used as templates in PCR reactions to produce full-length DNA clones of the PIMs. […] This step was repeated 3× and the resin was transferred to a 2.5 cm glass column. […] Fractions were analyzed by SDS-PAGE and those containing the protein of interest were pooled and concentrated. […] The final buffer conditions were as follows: 60 mM Hepes, pH 7.0, 0.05% BSA, 2 mM DTT. […] For each plate, percent of control (POC) values were calculated for each well. […]
Endpoint: pIC50
Numbers only, as −log10 of the molar value.

q: Field request: pIC50 | item: `NC1CCN(c2cncc(-c3n[nH]c4ccc(N5CCCC5=O)cc34)n2)CC1`
a: 7.92

q: And then `COc1cccc(-c2ccc3[nH]nc(-c4cncc(O[C@@H]5CCCNC5)n4)c3c2)n1` , what is it?
a: 8.10

q: # repeat for `C[C@@H]1CCNC[C@H]1Oc1cncc(-c2n[nH]c3ccc(-c4c(F)cccc4F)cc23)n1`
a: 7.43

Batch lookup, pIC50 per entry.
1. O=C(NC1CC1)c1cncc(-c2ccc3[nH]nc(-c4cncc(O[C@@H]5CCCNC5)n4)c3c2)c1
2. CC(C)NC(=O)c1ccc(F)c(-c2ccc3[nH]nc(-c4cncc(N5CCC(N)CC5)n4)c3c2)c1

a:
[8.70, 8.15]

Parameter requested: pIC50. Apply to each item below.
1. Fc1cccc(Cl)c1-c1ccc2[nH]cc(-c3cncc(O[C@@H]4CCCNC4)n3)c2c1 [Example 26, bis(2,2,2-trifluoroacetate)]
2. Fc1cccc(F)c1-c1ccc2[nH]cc(-c3cncc(N[C@@H]4CCCNC4)n3)c2c1

a:
1. 8.40
2. 9.00

---

Tested target: Pim-2 stably transfected into the U2OS human osteogenic sarcoma line (Homo sapiens, UniProt Q9P1W9)
Construct: expressed in transfected cells; host or cells: U2OS human osteogenic sarcoma line
Method notes: Pim cell assay, phospho-BAD normalized against total BAD, U2OS stably transfected with Pim-2; further: high dose 31.6 µM
Type: cell-based
Measurement parameters: U2OS cells stably transfected with Pim-2, phospho-BAD; high dose […]; read-out: Pim2_Cell_IC50
Endpoint: pIC50
Give bare numbers, as −log10 of the molar value.

q: Which measured pIC50 value corresponds to `CN(C)C(=O)c1ccc(F)c(-c2ccc3[nH]nc(-c4cncc(N5CCC(N)CC5)n4)c3c2)c1` ?
a: 5.15

Further cases:
q: Give its pIC50 value. Item: `CC(C)NC(=O)c1ccc(F)c(-c2ccc3[nH]nc(-c4cncc(O[C@@H]5CCCNC5)n4)c3c2)c1`
a: 5.73

---

Tested target: full length recombinant Pim-1 protein (Homo sapiens, UniProt P11309)
Construct: by full length recombinant Pim-1, Pim-2, or Pim-3 protein; hexahistidine tag followed by a thrombin cleavage site (N); made in house; host or cells: Sf9 (baculovirus) or E. coli (pET28)
Sequence (P11309 whole entry): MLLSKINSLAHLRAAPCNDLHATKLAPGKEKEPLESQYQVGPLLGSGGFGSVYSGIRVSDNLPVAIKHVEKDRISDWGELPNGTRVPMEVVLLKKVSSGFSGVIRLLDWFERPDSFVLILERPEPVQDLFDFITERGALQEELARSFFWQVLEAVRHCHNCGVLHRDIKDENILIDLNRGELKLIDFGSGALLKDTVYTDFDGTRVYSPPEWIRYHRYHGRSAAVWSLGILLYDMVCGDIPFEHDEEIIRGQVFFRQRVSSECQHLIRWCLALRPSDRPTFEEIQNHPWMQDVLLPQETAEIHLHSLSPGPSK
Method notes: Pim-1 enzyme assay (HTRF, phosphorylation of biotinylated-BAD (S112) peptide)
Assay type: biochemical
Measurement parameters: enzyme assay, Pim-1; read-out: Pim_1_IC50
Method: These cDNAs were used as templates in PCR reactions to produce full-length DNA clones of the PIMs. […] This step was repeated 3× and the resin was transferred to a 2.5 cm glass column. […] Fractions were analyzed by SDS-PAGE and those containing the protein of interest were pooled and concentrated. […] The final buffer conditions were as follows: 60 mM Hepes, pH 7.0, 0.05% BSA, 2 mM DTT. […] For each plate, percent of control (POC) values were calculated for each well. […]
Endpoint: IC50
State the result as a value with its unit after it.

q: Requested read-out: IC50. Entry: COc1cc(-c2ccc3[nH]nc(-c4cncc(O[C@@H]5CCCNC5)n4)c3c2)ccn1 [Example 160]
a: 5 nM

q: Quick one: O=c1cc(-c2ccc3[nH]nc(-c4cncc(O[C@@H]5CCCNC5)n4)c3c2)c(Cl)c[nH]1 [Example 128]
a: 31 nM

q: Then COc1ccc(F)c(-c2ccc3[nH]nc(-c4cncc(N5CCC(N)CC5)n4)c3c2)c1 [Example 61] ?
a: 10 nM

q: // next record COc1cncc(-c2ccc3[nH]nc(-c4cncc(N5CCC(N)CC5)n4)c3c2)c1 [Example 79]
a: 1 nM

q: Next compound: NC(=O)c1ccc2[nH]cc(-c3cncc(N4CCC(N)CC4)n3)c2c1 [Example 238]
a: 107 nM

q: Input C1=C(c2ccc3[nH]nc(-c4cncc(O[C@@H]5CCCNC5)n4)c3c2)CCOC1 [Example 148]
a: 6 nM

q: Now try Fc1cccc(F)c1-c1ccc2[nH]nc(-c3cncc(O[C@H]4CNC[C@@H](F)C4)n3)c2c1 [Example 196] .
a: 4 nM

Would you kindly look at the next entry?
q: Recorded IC50 for Fc1cccc(F)c1-c1ccc2[nH]nc(-c3cncc(N4CCCC4)n3)c2c1 [Example 170] , please?
a: 153 nM

---

Give measured IC50 for each item. Keep answers brief.
Tested target: full length recombinant Pim-1 protein (Homo sapiens)
Construct: by full length recombinant Pim-1, Pim-2, or Pim-3 protein; hexahistidine tag followed by a thrombin cleavage site (N); made in house; host or cells: Sf9 (baculovirus) or E. coli (pET28)
Method notes: Pim-1 enzyme assay (HTRF, phosphorylation of biotinylated-BAD (S112) peptide)
Assay type: biochemical
Measurement parameters: enzyme assay, Pim-1; read-out: Pim_1_IC50
Numbers only, in nM.

q: Item C[C@H]1CCNC[C@@H]1Oc1cncc(-c2n[nH]c3ccc(-c4c(F)cccc4F)cc23)n1 [Example 195] has what recorded IC50?
a: 4

q: Also check `C[C@H]1CCNC[C@H]1Oc1cncc(-c2n[nH]c3ccc(-c4c(F)cccc4F)cc23)n1`
a: 5

q: What do you have for `Cc1ccc(-c2c[nH]c3ccc(-c4cncc(OC(C)C)n4)cc23)nc1` ?
a: 1130

For every listed record, write down its IC50.
1. Nc1ncc(-c2ccc3[nH]nc(-c4cncc(N5CCC(N)CC5)n4)c3c2)cn1
2. c1cc(-c2ccc3[nH]nc(-c4cncc(O[C@@H]5CCCNC5)n4)c3c2)nc(C2CC2)c1
3. CNc1nccc(-c2n[nH]c3ccc(-c4c(F)cccc4F)cc23)n1
4. NC1CCN(c2cncc(-c3n[nH]c4ccc(-c5cc(C(=O)NCc6ccccc6)ccc5F)cc34)n2)CC1
5. NC1CCN(c2cncc(-c3c[nH]c4ccc(-c5c(F)cccc5F)nc34)c2)CC1

a:
1: 3; 2: 30; 3: 147; 4: 6; 5: 19
